Below is a list of entries, each paired with its recorded CC50 at 5 days value.
# ASSAY REMARKS: Cytotoxicity assay in MT-4 cells
# Format: cell-based
# CONDITION DESCRIPTION: human; uninfected MT-4 cells, 5 days incubation, Cell Titer Glo; read-out: MT4 CC50

Sample records with CC50 at 5 days:
COC1=NO[C@@]2(CC[C@H](C)N3C[C@H]2n2cc(C(=O)NCc4ccc(F)cc4F)c(=O)c(OC(=O)OCCCC(C)C)c2C3=O)C1 ... 23.6 µM
CCCC(=O)OCOc1c2n(cc(C(=O)NCc3ccc(F)cc3F)c1=O)[C@@H]1CN(C2=O)[C@@H](C)CC[C@]12CC(C)=NO2 ... 20.4 µM
CCCCCCCCCCCCOC(=O)OCOc1c2n(cc(C(=O)NCc3ccc(F)cc3F)c1=O)[C@@H]1CN(C2=O)[C@@H](C)CC[C@]12CC(OC)=NO2 ... ≥ 50 µM
CCCCCOC(=O)OCOc1c2n(cc(C(=O)NCc3ccc(F)cc3F)c1=O)[C@@H]1CN(C2=O)[C@@H](C)CC[C@]12CC(C)=NO2 ... ≥ 50 µM

For reference, reported CC50 at 5 days for CCCCOC(=O)OCOc1c2n(cc(C(=O)NCc3ccc(F)cc3F)c1=O)[C@@H]1CN(C2=O)[C@@H](C)CC[C@]12CC(OC)=NO2 stands at 23.9 µM

Kindly note the recorded CC50 at 5 days for CC1=NO[C@@]2(CC[C@H](C)N3C[C@H]2n2cc(C(=O)NCc4ccc(F)cc4F)c(=O)c(OC(=O)C(C)C)c2C3=O)C1 , which is 15.1 µM
